Conditions: 298.15 K; Liquid; Closed cell (Static) method
Below, each entry is listed with its recorded vapor or sublimation pressure.
Field format: number, assumed kPa, no unit text.

Solved entries:
[
  {
    "Compound": "C1CCOCC1 [tetrahydropyran]",
    "Measure name": "vapor or sublimation pressure",
    "Recorded measurement": 9.25
  },
  {
    "Compound": "ClCCCl",
    "Measure name": "vapor or sublimation pressure",
    "Recorded measurement": 10.53
  },
  {
    "Compound": "C1COCO1",
    "Measure name": "vapor or sublimation pressure",
    "Recorded measurement": 13.31
  }
]

# input Please give measured vapor or sublimation pressure of the following entry: C1COCCO1
# output 4.68
